Catalogue of Kd readings, one per entry.
target: T1, recombinant human IL-6 (human, UniProt P05231 30-212); assay: SPR (Biacore), supernatant IgG on Protein A, 25 C
T1 construct: Flowed in solution over the captured antibodies
T1 sequence (P05231 30-212 limits assumed): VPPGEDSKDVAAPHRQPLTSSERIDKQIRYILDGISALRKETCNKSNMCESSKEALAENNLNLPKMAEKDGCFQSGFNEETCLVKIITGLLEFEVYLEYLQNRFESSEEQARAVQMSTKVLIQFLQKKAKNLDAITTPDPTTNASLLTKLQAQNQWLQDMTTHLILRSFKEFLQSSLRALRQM
parameterMeasured: Kd (nM)

INSERT INTO results (binder, reportedvalue) VALUES
  ('anti-IL-6 antibody, heavy chain WT, light chain S28E (antibody, IgG1, V domains shown, Full IgG1 tested; V domains derived as in m2) VH: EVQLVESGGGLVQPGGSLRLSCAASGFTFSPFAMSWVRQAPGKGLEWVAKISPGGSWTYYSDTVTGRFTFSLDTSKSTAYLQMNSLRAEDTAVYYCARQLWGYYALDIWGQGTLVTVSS VL: DIQLTQSPSSLSASVGDRVTITCSASIEVSYMYWYQQKPGKAPKLLIYDMSNLASGVPSRFSGSGSGTDFTLTISSLQPEDFATYYCMQWSGYPYTFGQGTKVEIK', 0.289),
  ('anti-IL-6 antibody, heavy chain Q99A, light chain WT (antibody, IgG1, V domains shown, Full IgG1 tested; V domains derived as in m2) VH: EVQLVESGGGLVQPGGSLRLSCAASGFTFSPFAMSWVRQAPGKGLEWVAKISPGGSWTYYSDTVTGRFTFSLDTSKSTAYLQMNSLRAEDTAVYYCARALWGYYALDIWGQGTLVTVSS VL: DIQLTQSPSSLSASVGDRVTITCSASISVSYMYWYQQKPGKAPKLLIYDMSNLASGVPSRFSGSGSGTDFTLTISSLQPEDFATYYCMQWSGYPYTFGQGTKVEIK', 2),
  ('anti-IL-6 antibody, heavy chain T63Q, light chain WT (antibody, IgG1, V domains shown, Full IgG1 tested; V domains derived as in m2) VH: EVQLVESGGGLVQPGGSLRLSCAASGFTFSPFAMSWVRQAPGKGLEWVAKISPGGSWTYYSDQVTGRFTFSLDTSKSTAYLQMNSLRAEDTAVYYCARQLWGYYALDIWGQGTLVTVSS VL: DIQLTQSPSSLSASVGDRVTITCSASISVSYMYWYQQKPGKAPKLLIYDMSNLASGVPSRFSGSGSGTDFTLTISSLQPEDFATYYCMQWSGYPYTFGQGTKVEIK', 0.594),
  ('anti-IL-6 antibody, heavy chain WT, light chain I27W (antibody, IgG1, V domains shown, Full IgG1 tested; V domains derived as in m2) VH: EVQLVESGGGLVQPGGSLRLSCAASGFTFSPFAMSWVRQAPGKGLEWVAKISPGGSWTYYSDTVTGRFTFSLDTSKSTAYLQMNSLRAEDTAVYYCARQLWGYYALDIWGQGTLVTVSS VL: DIQLTQSPSSLSASVGDRVTITCSASWSVSYMYWYQQKPGKAPKLLIYDMSNLASGVPSRFSGSGSGTDFTLTISSLQPEDFATYYCMQWSGYPYTFGQGTKVEIK', 0.33),
  ('anti-IL-6 antibody, heavy chain WT, light chain S24V (antibody, IgG1, V domains shown, Full IgG1 tested; V domains derived as in m2) VH: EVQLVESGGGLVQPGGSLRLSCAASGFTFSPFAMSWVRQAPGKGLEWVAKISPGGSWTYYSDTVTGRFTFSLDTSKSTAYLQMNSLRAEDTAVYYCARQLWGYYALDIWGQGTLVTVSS VL: DIQLTQSPSSLSASVGDRVTITCVASISVSYMYWYQQKPGKAPKLLIYDMSNLASGVPSRFSGSGSGTDFTLTISSLQPEDFATYYCMQWSGYPYTFGQGTKVEIK', 0.403),
  ('anti-IL-6 antibody, heavy chain WT, light chain S28R (antibody, IgG1, V domains shown, Full IgG1 tested; V domains derived as in m2) VH: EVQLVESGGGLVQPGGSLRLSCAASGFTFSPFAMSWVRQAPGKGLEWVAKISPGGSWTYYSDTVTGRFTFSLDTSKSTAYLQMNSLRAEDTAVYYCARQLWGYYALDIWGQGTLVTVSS VL: DIQLTQSPSSLSASVGDRVTITCSASIRVSYMYWYQQKPGKAPKLLIYDMSNLASGVPSRFSGSGSGTDFTLTISSLQPEDFATYYCMQWSGYPYTFGQGTKVEIK', 0.464),
  ('anti-IL-6 antibody, parent sequence (heavy chain WT, light chain WT) (antibody, V domains shown, Tested as full antibody from Expi293 cells in an engineered human IgG1 framework (L234A, L235A, G237A, L443C, EU); also called wild-type; parent molecule) VH: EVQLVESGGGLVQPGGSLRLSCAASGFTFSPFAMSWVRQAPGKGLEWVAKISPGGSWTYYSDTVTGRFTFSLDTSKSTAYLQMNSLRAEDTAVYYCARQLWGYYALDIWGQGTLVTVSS VL: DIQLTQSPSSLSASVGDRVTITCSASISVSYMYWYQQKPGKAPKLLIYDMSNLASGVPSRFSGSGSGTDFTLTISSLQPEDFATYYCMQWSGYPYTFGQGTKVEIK', 0.399),
  ('anti-IL-6 antibody, heavy chain W57F, light chain WT (antibody, IgG1, V domains shown, Full IgG1 tested; V domains derived as in m2) VH: EVQLVESGGGLVQPGGSLRLSCAASGFTFSPFAMSWVRQAPGKGLEWVAKISPGGSFTYYSDTVTGRFTFSLDTSKSTAYLQMNSLRAEDTAVYYCARQLWGYYALDIWGQGTLVTVSS VL: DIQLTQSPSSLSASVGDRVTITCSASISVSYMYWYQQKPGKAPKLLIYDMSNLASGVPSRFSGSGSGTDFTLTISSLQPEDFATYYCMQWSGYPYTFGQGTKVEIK', 0.222),
  ('anti-IL-6 antibody, heavy chain I108F, light chain WT (antibody, IgG1, V domains shown, Full IgG1 tested; V domains derived as in m2) VH: EVQLVESGGGLVQPGGSLRLSCAASGFTFSPFAMSWVRQAPGKGLEWVAKISPGGSWTYYSDTVTGRFTFSLDTSKSTAYLQMNSLRAEDTAVYYCARQLWGYYALDFWGQGTLVTVSS VL: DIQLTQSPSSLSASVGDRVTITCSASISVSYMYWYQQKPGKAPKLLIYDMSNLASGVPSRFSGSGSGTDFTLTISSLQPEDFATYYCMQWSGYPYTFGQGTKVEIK', 0.399),
  ('anti-IL-6 antibody, heavy chain T65G, light chain WT (antibody, IgG1, V domains shown, Full IgG1 tested; V domains derived as in m2) VH: EVQLVESGGGLVQPGGSLRLSCAASGFTFSPFAMSWVRQAPGKGLEWVAKISPGGSWTYYSDTVGGRFTFSLDTSKSTAYLQMNSLRAEDTAVYYCARQLWGYYALDIWGQGTLVTVSS VL: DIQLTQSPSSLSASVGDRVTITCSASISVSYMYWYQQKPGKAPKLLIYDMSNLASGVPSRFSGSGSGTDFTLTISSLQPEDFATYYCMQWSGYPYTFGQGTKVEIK', 0.0954);

Origin of measurements: patent US20240209076A1
